Listing of recorded pIC50 by entry.
Target: Aurora A (Homo sapiens, UniProt O14965)
Construct: cell lysates from Jurkat cells (ATCC TIB-152) used; endogenous in cells
Sequence (O14965 whole entry): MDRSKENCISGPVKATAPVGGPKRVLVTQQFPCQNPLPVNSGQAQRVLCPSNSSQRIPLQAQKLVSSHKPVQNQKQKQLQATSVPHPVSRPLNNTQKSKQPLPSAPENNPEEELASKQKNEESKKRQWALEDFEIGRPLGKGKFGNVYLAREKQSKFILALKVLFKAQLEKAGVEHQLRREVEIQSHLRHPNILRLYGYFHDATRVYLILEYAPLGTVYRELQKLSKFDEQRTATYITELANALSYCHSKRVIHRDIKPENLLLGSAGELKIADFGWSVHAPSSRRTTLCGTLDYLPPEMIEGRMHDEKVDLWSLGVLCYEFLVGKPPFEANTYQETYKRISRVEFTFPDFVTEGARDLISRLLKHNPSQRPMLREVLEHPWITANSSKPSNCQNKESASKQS
Experiment: Kinobeads assay, Aurora A
Details: lysate of pervanadate-treated Jurkat cells, read-out: Inhibition values (IC50) Aur A
pIC50: −log10 of the molar value.

| entrySmiles | systemTested | pIC50 |
| --- | --- | --- |
| O=C1COCCN1c1cc(F)cc(Cn2ncc3cnc(Nc4cnn(C5CCNCC5)c4)nc32)c1 | Aurora A (Homo sapiens, UniProt O14965) | > 7.00 |
| Cn1cc(Nc2ncc3cnn(Cc4cc(F)cc(N5CCNCC5=O)c4)c3n2)cn1 | Aurora A (Homo sapiens, UniProt O14965) | 6.00 to 7.00 |
| Cn1cc(Nc2ncc3cnn(Cc4c(F)c(F)cc(N5CCNCC5)c4F)c3n2)cn1 | Aurora A (Homo sapiens, UniProt O14965) | 6.00 to 7.00 |
| CN(C)C(=O)CCn1cc(Nc2ncc3cnn(Cc4cccc(N5CCOCC5)c4)c3n2)cn1 | Aurora A (Homo sapiens, UniProt O14965) | 6.00 to 7.00 |
| O=C(c1cc(F)c(F)c(Cn2ncc3cnc(Nc4cnn(CCO)c4)nc32)c1F)N1CCOCC1 | Aurora A (Homo sapiens, UniProt O14965) | 6.00 to 7.00 |
| Cn1cc(Nc2ncc3cnn(Cc4cc(N5CCOCC5=O)cc(F)c4F)c3n2)cn1 | Aurora A (Homo sapiens, UniProt O14965) | 6.00 to 7.00 |
| C[C@@H]1COCCN1c1cccc(Cn2ncc3cnc(Nc4cnn(C)c4)nc32)n1 | Aurora A (Homo sapiens, UniProt O14965) | 6.00 to 7.00 |
| O=C1CNCCN1c1cc(F)c(F)c(Cn2ncc3cnc(Nc4cnn(CCO)c4)nc32)c1 | Aurora A (Homo sapiens, UniProt O14965) | 6.00 to 7.00 |
| OCCn1cc(Nc2ncc3cnn(Cc4cccc(N5CCOCC5)c4F)c3n2)cn1 | Aurora A (Homo sapiens, UniProt O14965) | 6.00 to 7.00 |
| CN(C)CCCn1cc(Nc2ncc3cnn(Cc4cccc(N5CCOCC5)c4)c3n2)cn1 | Aurora A (Homo sapiens, UniProt O14965) | 5.00 to 6.00 |
| OCCn1cc(Nc2ncc3cnn(Cc4cccc(N5CCNCC5)c4F)c3n2)cn1 | Aurora A (Homo sapiens, UniProt O14965) | 6.00 to 7.00 |

* * *

Biological target: Aurora B (Homo sapiens)
Construct: cell lysates from Jurkat cells (ATCC TIB-152) used; endogenous in cells
Sequence (Q96GD4 whole entry): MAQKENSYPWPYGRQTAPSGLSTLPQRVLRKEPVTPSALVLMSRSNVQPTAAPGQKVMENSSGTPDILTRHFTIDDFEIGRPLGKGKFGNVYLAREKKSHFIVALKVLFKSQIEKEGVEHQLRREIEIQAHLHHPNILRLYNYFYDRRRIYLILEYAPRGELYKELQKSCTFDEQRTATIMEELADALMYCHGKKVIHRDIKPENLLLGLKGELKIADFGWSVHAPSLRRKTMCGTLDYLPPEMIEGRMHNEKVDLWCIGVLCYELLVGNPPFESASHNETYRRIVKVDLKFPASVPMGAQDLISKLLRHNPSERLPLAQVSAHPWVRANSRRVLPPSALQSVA
Assay: Kinobeads assay, Aurora B
Settings: lysate of pervanadate-treated Jurkat cells, read-out: Inhibition values (IC50) Aur B

| compound | IC50 |
| --- | --- |
| CCOC(=O)C1CCCN(c2cccc(Cn3ncc4cnc(Nc5cnn(C)c5)nc43)c2)C1 (stereo not drawn) | ≥ 10000 nM |
| O=C1COCCN1c1cccc(Cn2ncc3cnc(Nc4cnn(CCO)c4)nc32)c1 | 100 to 1000 nM |
| Cn1cc(Nc2ncc3cnn(Cc4cccc(C(=O)N5CCOCC5)c4F)c3n2)cn1 | 1000 to 10000 nM |
| Cn1cc(Nc2ncc3cnn(Cc4cccc(C5CCOCC5)c4)c3n2)cn1 | 100 to 1000 nM |
| Cc1c(Cn2ncc3cnc(Nc4cnn(C)c4)nc32)cccc1N1CCOCC1 | 100 to 1000 nM |
| c1cc(Cn2ncc3cnc(Nc4cnn(CC5CCCNC5)c4)nc32)cc(N2CCOCC2)c1 (stereo not drawn) | 1000 to 10000 nM |
| OCCn1cc(Nc2ncc3cnn(Cc4cc(N5CCOCC5)cc(F)c4F)c3n2)cn1 | 1000 to 10000 nM |
| O=C(Cn1cc(Nc2ncc3cnn(Cc4cc(F)cc(N5CCOCC5=O)c4)c3n2)cn1)N1CCNCC1 | 100 to 1000 nM |
| Cn1cc(-c2cccc(Cn3ncc4cnc(Nc5cnn(CCO)c5)nc43)c2)cn1 | 100 to 1000 nM |
| O=C1CNCCN1c1cc(F)cc(Cn2ncc3cnc(Nc4cnn(CCO)c4)nc32)c1 | < 100 nM |
| Cn1cc(Nc2ncc3cnn(Cc4c(F)c(F)cc(N5CCOCC5=O)c4F)c3n2)cn1 | 100 to 1000 nM |
| OCCn1cc(Nc2ncc3cnn(Cc4cc(F)cc(N5CCOCC5)c4)c3n2)cn1 | 100 to 1000 nM |
| Cn1cc(Nc2ncc3cnn(Cc4cccc(N5CCOCC5O)c4)c3n2)cn1 (stereo not drawn) | 1000 to 10000 nM |
| Cn1cc(Nc2ncc3cnn(Cc4c(F)c(F)cc(N5CCNCC5)c4F)c3n2)cn1 | < 100 nM |
| O=C(c1cccc(Cn2ncc3cnc(Nc4cnn(CCO)c4)nc32)c1F)N1CCOCC1 | 1000 to 10000 nM |
| CN(C)CCCn1cc(Nc2ncc3cnn(Cc4c(F)ccc(N5CCOCC5=O)c4F)c3n2)cn1 | < 100 nM |
| O=C1COCCN1c1cc(F)cc(Cn2ncc3cnc(Nc4cnn(CCO)c4)nc32)c1F | < 100 nM |
| O=C(CCn1cc(Nc2ncc3cnn(Cc4cccc(N5CCOCC5)c4)c3n2)cn1)N1CCCCC1 | 1000 to 10000 nM |
| Cn1cc(Nc2ncc3cnn(Cc4cccc(N5CCCCC5)c4)c3n2)cn1 | 1000 to 10000 nM |
| OCCn1cc(Nc2ncc3cnn(Cc4cccc(N5CCOCC5)c4F)c3n2)cn1 | 100 to 1000 nM |
| Fc1cc(N2CCOCC2)c(F)c(Cn2ncc3cnc(Nc4cn[nH]c4)nc32)c1F | 100 to 1000 nM |
